Assay: Visual observation of gelation of peptide and peptide:GAG samples (systematic mixing study)
Assay type: physicochemical
Conditions: 20 mg/ml peptide
propertyLabel: time to form a self-supporting gel (gelation time)

CH3CO-S-S-R-F-O-W-O-F-E-S-S-NH2 (SSRFXWXFESS; HELM PEPTIDE1{[ac].S.S.R.F.[Orn].W.[Orn].F.E.S.S.[am]}$$$$V2.0; SMILES CC(=O)N[C@@H](CO)C(=O)N[C@@H](CO)C(=O)N[C@@H](CCCNC(=N)N)C(=O)N[C@@H](Cc1ccccc1)C(=O)N[C@@H](CCCN)C(=O)N[C@@H](Cc1c[nH]c2ccccc12)C(=O)N[C@@H](CCCN)C(=O)N[C@@H](Cc1ccccc1)C(=O)N[C@@H](CCC(=O)O)C(=O)N[C@@H](CO)C(=O)N[C@@H](CO)C(N)=O) [Peptide P11-12]    minutes
CH3CO-S-S-R-F-E-W-E-F-E-S-S-NH2 (Ac-SSRFEWEFESS-NH2) [Peptide P11-9]    minutes
CH3CO-Q-Q-R-F-O-W-O-F-E-Q-Q-NH2 (QQRFXWXFEQQ; HELM PEPTIDE1{[ac].Q.Q.R.F.[Orn].W.[Orn].F.E.Q.Q.[am]}$$$$V2.0; SMILES CC(=O)N[C@@H](CCC(N)=O)C(=O)N[C@@H](CCC(N)=O)C(=O)N[C@@H](CCCNC(=N)N)C(=O)N[C@@H](Cc1ccccc1)C(=O)N[C@@H](CCCN)C(=O)N[C@@H](Cc1c[nH]c2ccccc12)C(=O)N[C@@H](CCCN)C(=O)N[C@@H](Cc1ccccc1)C(=O)N[C@@H](CCC(=O)O)C(=O)N[C@@H](CCC(N)=O)C(=O)N[C@@H](CCC(N)=O)C(N)=O) [Peptide P11-8]    days
CH3CO-Q-Q-R-F-E-W-E-F-E-Q-Q-NH2 (Ac-QQRFEWEFEQQ-NH2) [Peptide P11-4]    hours
